target: T1, biotinylated human VWF cysteine knot (CK) domain construct (human, UniProt P04275 2724-2813, biotinylated in vitro (BirA) on the biotinylation tag; one N-glycan); experiment: SPR, scFv captured via anti-SV5, CK domain injected, pH 5.5, apparent Kd;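 further: scFvs from crude yeast supernatants captured on chip-bound anti-SV5 antibody, Kd computed as koff divided by kon, dimeric CK construct likely makes affinity appear higher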
T1 construct: Expressed in HEK293 EBNA cells; disulfide-linked homodimer; also called human VWF CK; human VWF CK domain; not shown: in vitro biotinylation tag, HRV-3C site and 3 VWF residues before the CK domain
Measured pKd accompanies every entry in the list below.
Please keep in mind that pKd is minus log10 of the molar concentration; only the number is needed.

binder="3552_Lib8_scFv (scFv, VH-linker-VL; not shown: C-terminal 3xFLAG and SV5 tags) scFv: EVQLVESGGGLVQPGRSLRLSCAASEFTFGDYDMHWVRQAPGKGLEWVSAISSSGSNRDYADSVEGRFTISRDNAKNSLYLQMNSLRAEDTAVYYCARDAWFGDAFDIWGQGTMVTVSSSGGSTITSYNVYYTKLSSSGTDIQMTQSPSSLSASVGDRVTITCRASESVSSWLAWYQQKPGKAPKLLIYGASTLEGGVPSRFSGSGSGTDFTLTISSLQPEDVATYYCQQSYSFPDFGGGTKVEIK" reported_result=9.39
binder="11485_Lib1_scFv (scFv, VH-linker-VL; not shown: C-terminal 3xFLAG and SV5 tags) scFv: QVQLVQSGAEVKKPGASVKVSCKVSGAPSAAIIHWVRQAPGKGLEWMGGFTQIFGTAIYAQKFQGRVTMTEDTSTDTAYMELSSLKSEDTAVYYCAREGIGGHDAFDIWGQGTMVTVSSSGGSTITSYNVYYTKLSSSGTDIQMTQSPSSVSASVGDRVTITCRASQDISKNLAWYQQKPGKAPKLLIYKASKLESGVPSRFSGSGSGTDFTLTISSLQPEDFANYYCLHDYTYPPTFGGGTKVEIK" reported_result=8.74
binder="4956_Lib1_scFv (scFv, VH-linker-VL; not shown: C-terminal 3xFLAG and SV5 tags) scFv: QVQLVQSGAEVKKPGASVKVSCKVSGYTLTSNYIHWVRQAPGKGLEWMGGFNPSSGSTIYAQKFQGRVTMTEDTSTDTAYMELSSLKSEDTAVYYCARTLYDFWSGYLDAFDIWGQGTMVTVSSSGGSTITSYNVYYTKLSSSGTDIQMTQSPSSVSASVGDRVTITCRASQNIRSSLAWYQQKPGKAPKLLIYAASNLEPGVPSRFSGSGSGTDFTLTISSLQPEDFANYYCQQYEDTPLTFGGGTKVEIK" reported_result=8.72
binder="3964_Lib4_scFv (scFv, VH-linker-VL; not shown: C-terminal 3xFLAG and SV5 tags) scFv: QVQLQESGPGLVKPSQTLSLTCTVSGASISTHSWSWIRQPPGKGLEWIGYINPSGDIDYNPSLKSRVTMSVDTSKNQFSLKVNSVTAADTAVYYCARGRTGFDSSGFVVGAFDIWGQGTMVTVSSSGGSTITSYNVYYTKLSSSGTEIVMTQSPATLSLSPGERATLSCRASQNVNDNLAWYQQKPGQAPRLLIYDASTRPTGIPARFSGSGSGTDFTLTISSLEPEDFAVYYCQQYLTIPRTFGGGTKVEIK" reported_result=9.13

Now for the binder whose pKd we want.
Reported pKd ( 5662_Lib8_scFv (scFv, VH-linker-VL; not shown: C-terminal 3xFLAG and SV5 tags) scFv: EVQLVESGGGLVQPGRSLRLSCAASGFNFHNYDMHWVRQAPGKGLEWVSAIDISGQSTDYADSVEGRFTISRDNAKNSLYLQMNSLRAEDTAVYYCAREGWYGGVFDYWGQGTLVTVSSSGGSTITSYNVYYTKLSSSGTDIQMTQSPSSLSASVGDRVTITCRASQDIANWLAWYQQKPGKAPKLLIYGASESGVGVPSRFSGSGSGTDFTLTISSLQPEDVATYYCQQSLTMKTFGGGTKVEIK ) = 9.16
